experiment: self-splicing fitness, log relative to wild type (ln ratio); higher = more splicing; Tetrahymena group I intron in knt gene, E. coli kanamycin selection, DiMSum; sequences stand for … in CUCUCU…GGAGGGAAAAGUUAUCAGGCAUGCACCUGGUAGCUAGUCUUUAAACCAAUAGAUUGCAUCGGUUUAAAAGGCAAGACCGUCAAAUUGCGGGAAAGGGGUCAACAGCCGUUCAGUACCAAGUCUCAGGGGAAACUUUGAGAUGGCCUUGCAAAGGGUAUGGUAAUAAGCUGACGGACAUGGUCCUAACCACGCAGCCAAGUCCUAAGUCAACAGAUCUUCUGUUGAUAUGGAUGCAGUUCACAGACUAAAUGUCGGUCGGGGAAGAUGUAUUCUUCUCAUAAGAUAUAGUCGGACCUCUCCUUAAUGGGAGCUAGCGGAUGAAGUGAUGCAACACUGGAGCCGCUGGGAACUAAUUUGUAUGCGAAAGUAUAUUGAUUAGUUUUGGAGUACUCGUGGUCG; conditions: 30 °C;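 note: selection with 25 µg/mL kanamycin versus none on LB agar overnight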
// values below are reported self-splicing fitness (ln)
Answer using only a numeral; do not append any unit.

Known self-splicing fitness (ln) results, listed for orientation:
sequence_code=AGUGAGCAAUAUUACGCAAU metric_name="self-splicing fitness (ln)" readout_number=-2.23
sequence_code=UUUGAGCAAUAUUACGAAGC metric_name="self-splicing fitness (ln)" readout_number=-3.58

Query block: Which measured self-splicing fitness (ln) value corresponds to GUCAAGCAAUAUUACGAGAC ?
Result block: -3.46

Query block: For CUUGAGCAAUAUUACGGGCA then?
Result block: -3.94

Query block: For UCGUAGCAAUAUUACGAGUG then?
Result block: -3.62

Query block: For AUUGAGCAAUAUUACGAUUU then?
Result block: -1.11

Query block: For GGCGAGCAAUAUUACGUUCU then?
Result block: -1.02

Query block: For GCCUAGCAAUAUUACGACCU then?
Result block: -1.35

---

experiment: self-splicing fitness, log relative to wild type (ln ratio); higher = more splicing; Tetrahymena group I intron in knt gene, E. coli kanamycin selection, DiMSum; sequences stand for … in CUCUCU…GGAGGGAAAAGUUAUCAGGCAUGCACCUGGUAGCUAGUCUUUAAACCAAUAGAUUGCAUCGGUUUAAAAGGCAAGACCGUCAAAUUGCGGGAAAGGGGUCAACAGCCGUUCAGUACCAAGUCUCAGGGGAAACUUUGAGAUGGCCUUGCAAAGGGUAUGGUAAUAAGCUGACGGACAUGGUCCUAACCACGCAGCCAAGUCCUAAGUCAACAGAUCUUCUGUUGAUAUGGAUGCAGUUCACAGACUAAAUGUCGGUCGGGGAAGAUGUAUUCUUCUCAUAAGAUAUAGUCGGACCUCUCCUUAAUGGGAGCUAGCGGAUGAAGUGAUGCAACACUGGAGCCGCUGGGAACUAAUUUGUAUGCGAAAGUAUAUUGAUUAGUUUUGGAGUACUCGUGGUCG; settings: 30 °C
Values of self-splicing fitness (ln) greater than or equal to -2 map to met; values below map to not met.

Study these solved cases before continuing.
sequence_code=UAGAAGCAAUAUUACGGGUA assigned_category=met
sequence_code=AUGAAGCAAUAUUACGGACG assigned_category=met
sequence_code=CGGAAGCAAUAUUACGGGUA assigned_category="not met"
sequence_code=GAACAGCAAUAUUACGGACG assigned_category=met

Query block: Decide: self-splicing fitness (ln) of UCCUAGCAAUAUUACGGAGU >= -2?
Result block: not met

Query block: For GGCUAGCAAUAUUACGCUGG then?
Result block: not met

Query block: For UAGCAGCAAUAUUACGACAG then?
Result block: met
